test system: ovariectomized rats; test: Inhibitory effect on the increase of urinary hydroxyproline excretion by ovariectomy (Test Example 1); assay type: in vivo, SD strain rats; details: Rattus norvegicus, po, 336 h; ovariectomized female SD rats; test compound 10 mg/kg suspended in 0.3% Tween, orally once a day for two weeks; 24 h urine, hydroxyproline/creatinine molar ratio; versus ovariectomized control and sham-operated rats; read-out: Inhibition rate of increase of the amount of urinary hydroxyproline excretion
Each entry below carries its reported inhibition in vivo at 10 mg/kg.
Answer format: numeric, % implied, no suffix.

# annotated cases, reported inhibition in vivo at 10 mg/kg shown
CCN1CCCC1CNC(=O)c1c(C(c2ccc(O)cc2)c2ccc(O)cc2)c2ccccc2n1CCN(C)C (stereo not drawn); 100
CN(C)CCn1c(C(=O)NCCC2CCCN2C)c(C(c2ccc(O)cc2)c2ccc(O)cc2)c2ccccc21 (stereo not drawn); 100
CN(C)CCn1c(C(=O)NCCN2CCCCC2)c(C(c2ccc(O)cc2)c2ccc(O)cc2)c2ccccc21; 100
CN(C)CCn1c(C(=O)NCC2CCCO2)c(C(c2ccc(O)cc2)c2ccc(O)cc2)c2ccccc21 (stereo not drawn); 100
CN(C)CCN(C)C(=O)c1c(C(c2ccc(O)cc2)c2ccc(O)cc2)c2ccccc2n1CCN(C)C; 100

Hi! What's the reported inhibition in vivo at 10 mg/kg for "CN(C)CCn1c(C(=O)NCCc2ccncc2)c(C(c2ccc(O)cc2)c2ccc(O)cc2)c2ccccc21" on ovariectomized rats?
100

# query: inhibition in vivo at 10 mg/kg | item "CN(C)CCn1c(C(=O)NCc2cccnc2)c(C(c2ccc(O)cc2)c2ccc(O)cc2)c2ccccc21" | system: ovariectomized rats
30

Hi! What's the reported inhibition in vivo at 10 mg/kg for "CN(C)CCn1c(C(=O)NCCCN2CCOCC2)c(C(c2ccc(O)cc2)c2ccc(O)cc2)c2ccccc21" on ovariectomized rats?
30

Could you share what inhibition in vivo at 10 mg/kg was measured for "CN(C)CCn1c(C(=O)NCc2ccncc2)c(C(c2ccc(O)cc2)c2ccc(O)cc2)c2ccccc21" , tested on ovariectomized rats?
100
